# Assay target: Albumin (Bos taurus)
# Experimental protocol: bovine serum albumin binders on microarray, profiling panel, artefact control for SMM control protein annotation, biochemical, small-molecule microarray, Alexa647 label, 635/667 nm fluorescence (AID 1118);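 note: score merges 667 nm emission intensity and signal-to-noise per printed compound spot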
# Measurement conditions: BSA-A647 binding, fluorescence 635 nm, higher = more signal
# thresholds on composite z-score define classes: bottom = under 0.4, middle = from 0.4 up to 0.7, top = 0.7 and over

[[record]]
molecule = "CCOC(=O)C[C@H]1[C@H](OC(=O)c2ccc(-c3ccccc3)cc2)[C@@H](NC(=O)c2ccc3ccccc3c2)c2cc(OCCCO)ccc2N1C(=O)Cc1ccc(OC)cc1"
group_label = "middle"

[[record]]
molecule = "COCCOC(=O)N1C(=O)[C@@]2(c3cc(C#CCC(C(=O)OC)C(=O)OC)ccc31)[C@H](C(=O)N1CCN(c3ncccn3)CC1)[C@H]1C(=O)O[C@H](c3ccccc3)[C@H](c3ccccc3)N1[C@@H]2c1ccc(OCCO)cc1"
group_label = "top"

[[record]]
molecule = "COC(=O)C(CC#Cc1ccc2c(c1)[C@]1(C(=O)N2)[C@H](C(=O)NC[C@H](O)c2ccccc2)[C@H]2C(=O)O[C@H](c3ccccc3)[C@H](c3ccccc3)N2[C@@H]1c1ccc(OCCO)cc1)C(=O)OC"
group_label = "middle"

[[record]]
molecule = "Cc1ccc(F)cc1S(=O)(=O)N[C@@H]1CCN(Cc2ccc(-c3ccccc3)cc2)C1"
group_label = "middle"

[[record]]
molecule = "CCOC(=O)C[C@H]1[C@H](OC(=O)Cc2ccc3c(c2)OCO3)[C@@H](NC(=O)C2CCCCC2)c2cc(OCCCO)ccc2N1C(=O)Cc1ccc(OC)cc1"
group_label = "bottom"

[[record]]
molecule = "[N-]=[N+]=NCc1ccccc1C[C@]1(C(=O)O)N=C(c2ccc(OCCCO)cc2)O[C@H]1c1ccccc1"
group_label = "top"

[[record]]
molecule = "COC(=O)[C@@]1(Cc2ccccc2)[C@H]2c3cc(C(=O)N4CCCC4)n(Cc4ccc(C)o4)c3C[C@H]2CN1C(=O)c1ccccc1"
group_label = "top"

[[record]]
molecule = "C=CCNC(=O)[C@H]1[C@@H]2C(=O)O[C@@H](c3ccccc3)[C@@H](c3ccccc3)N2[C@@H](c2ccc(O)cc2)[C@]12C(=O)N(C(=O)OCCOC)c1ccc(C#CCCO)cc12"
group_label = "middle"

[[record]]
molecule = "COCCOC(=O)N1C(=O)[C@@]2(c3cc(C#CCC(C(=O)OC)C(=O)OC)ccc31)[C@H](c1ccccc1OCCO)N1[C@H](c3ccccc3)[C@H](c3ccccc3)OC(=O)[C@H]1[C@@H]2C(=O)N1CCc2cc(OC)c(OC)cc2C1"
group_label = "middle"

[[record]]
molecule = "CCOC(=O)C[C@H]1[C@H](OC(=O)c2ccccc2-c2ccccc2)[C@@H](NC(=O)c2ccc3ccccc3c2)c2cc(OCCCO)ccc2N1C(=O)c1ccc2ccccc2n1"
group_label = "middle"

[[record]]
molecule = "C=C(COC)C(=O)CC[C@H](OC(C)=O)c1cccc(OCCO)c1"
group_label = "bottom"

[[record]]
molecule = "[N-]=[N+]=NCc1ccccc1[C@@H]1OC(c2ccc(OCCCO)cc2)=N[C@]1(Cc1ccccc1N=[N+]=[N-])C(=O)NCc1ccccc1"
group_label = "top"

[[record]]
molecule = "[N-]=[N+]=NCc1ccccc1C[C@]1(C(=O)NCC(O)CO)N=C(c2ccc(OCCCO)cc2)O[C@H]1c1ccccc1N=[N+]=[N-] (stereo partly specified)"
group_label = "middle"

[[record]]
molecule = "CN1CCC(CCCO)=CC1c1ccc(CN2CCCC2)cc1 (stereo unspecified)"
group_label = "bottom"

[[record]]
molecule = "COCCOC(=O)N1C(=O)[C@@]2(c3cc(C#CCCO)ccc31)[C@H](C(=O)NC[C@H](O)c1ccccc1)[C@H]1C(=O)O[C@H](c3ccccc3)[C@H](c3ccccc3)N1[C@@H]2c1ccc(O)cc1"
group_label = "middle"

[[record]]
molecule = "Cc1cc(C)c(C(O)C2C=CC3C(=O)N(c4ccccc4)C(=O)C3N2Nc2ccc(C#N)cc2)c(C)c1 (stereo unspecified)"
group_label = "top"

[[record]]
molecule = "COCCOC(=O)N1C(=O)[C@@]2(c3cc(C#CCNC(N)=O)ccc31)[C@H](c1ccccc1OCCO)N1[C@H](c3ccccc3)[C@H](c3ccccc3)OC(=O)[C@H]1[C@@H]2C(N)=O"
group_label = "bottom"

[[record]]
molecule = "COC(=O)c1ccc(OC)c(/C=C\\CC(OC(C)=O)c2ccccc2)c1 (stereo unspecified)"
group_label = "middle"

[[record]]
molecule = "O=C1C2C=CC(C(O)c3ccc(B(O)O)cc3)N(Nc3ccccc3)C2C(=O)N1c1ccccc1 (stereo unspecified)"
group_label = "top"

